Tested on: DMS 273 small cell lung
Test: NCI tumour cell line growth inhibition, 48 h
metric_name: TGI

>  <molecule>
C=C(C)[C@@H]1CC[C@]2(C)CC[C@]3(C)[C@H](CC[C@@H]4[C@@]5(C)CC[C@H](O)C(C)(C)[C@@H]5CC[C@]43C)[C@@H]12

>  <TGI>
> 100 µM

$$$$

Please state TGI for every molecule in the list that follows.
1. O=C1N(C2CCCCC2)CC12CCCCC2
2. CN(O)C(=O)SCC(NC(=O)CCC(N)C(=O)O)C(=O)NCC(=O)O (stereo not drawn)

1: > 100 µM; 2: > 2000 µM

###

For each entry below, report its TGI value.
System: IGROV1 ovarian
Experiment: NCI tumour cell line growth inhibition, 48 h

These recorded examples may help you get a feel for the data.
>  <molecule>
O=c1cc(-c2ccccc2)c2ccccc2[nH]1

>  <result>
> 100 µM

$$$$
>  <molecule>
Cc1nnn[n-]1.N.N.N.N.N.[Cl-].[Co+3]

>  <result>
85 µM

$$$$
>  <molecule>
CNC(=O)Nc1nc2ccc([N+](=O)[O-])cc2[nH]1

>  <result>
> 100 µM

$$$$
>  <molecule>
CC(=O)c1ccc2c(c1)c1c(C)c3c[n+](C)ccc3c(C)c1n2C

>  <result>
> 100 µM

$$$$
>  <molecule>
Cc1ccc2nc3c(=O)[nH]c(=O)nc-3n(C)c2c1C

>  <result>
> 100 µM

$$$$

Please state TGI for every molecule in the list that follows.
1. CCCCON(OC(=O)c1ccc2ccccc2c1)C(=O)c1ccccc1
2. OC1c2ccccc2CC12Cc1ccccc1C2 (configuration not stated)
3. CCN1CCC(O)(c2ccc(Oc3ccccc3)cc2)C(C(=O)c2ccc(Oc3ccccc3)cc2)C1 (configuration not stated)
4. COC(=O)NC(=O)c1cn(C2OC(CO)C(O)C2O)c(=O)[nH]c1=O (configuration not stated)
5. CCOC(=O)N1CCN(/[N+]([O-])=N/Oc2ccc([N+](=O)[O-])cc2[N+](=O)[O-])CC1
6. COc1ccc(/C=C2\CCC(CNc3ccc(S(N)(=O)=O)cc3)C2=O)cc1 (configuration not stated)

1. > 100 µM
2. > 100 µM
3. 33 µM
4. > 100 µM
5. 30.2 µM
6. 43.4 µM

# returns recorded TGI (system: IGROV1 ovarian) for CC(=O)NC1C(OC[C@@H](CC(=O)N[C@@H](CC(=O)O)CC(=O)N[C@H](CC(=O)N[C@@H](CCCN)CC(=O)N[C@@H](CCCN)CC(=O)N[C@H](CC(N)=O)C(C)C)C(C)C)NC(=O)C[C@@H](N)C(C)C)OC(CO)C(O)C1O (some centres not stated)
> 100 µM

###

Test system: SK-MEL-2 melanoma
Experiment: NCI tumour cell line growth inhibition, 48 h
For each entry below, report its TGI value.

>  <molecule>
CCN(Cc1ccc(Cl)cc1)c1ccc(CO)c(Cl)c1

>  <TGI>
10.6 µM

$$$$
>  <molecule>
COC(=O)NC(=O)c1cn(C2OC(CO)C(O)C2O)c(=O)[nH]c1=O (configuration not stated)

>  <TGI>
> 100 µM

$$$$
>  <molecule>
CCCc1cc(=O)oc2c3c(c4c(c12)OC(C)(C)CC4)O[C@@H](C)[C@H](C)[C@H]3O

>  <TGI>
29.9 µM

$$$$
>  <molecule>
COC(=O)[C@H](Cc1ccccc1)NP(=O)(OCCC#N)OCC1OC(n2cc(C)c(=O)[nH]c2=O)CC1N=[N+]=[N-] (some centres not stated)

>  <TGI>
> 100 µM

$$$$

Please state TGI for every molecule in the list that follows.
1. COc1cccc(N2CCN(CC(=O)N3CCN(c4nnc(-c5ccc(Cl)cc5)c(-c5ccc(Cl)cc5)n4)CC3)CC2)c1
2. O=c1[nH]c(=O)c2cn[nH]c2[nH]1
3. Cc1cc2c(cc1C)OC(=O)CC2
4. COc1ccc(C(=S)N2CCN(c3cccc(C)c3)CC2)cc1OC
5. CCOC(=O)Nc1ccc2c(c1)/C(=N\NC(N)=S)c1ccccc1-2

1. > 100 µM
2. > 100 µM
3. > 100 µM
4. > 100 µM
5. 15.8 µM

###

Tested on: HS 578T breast
Test: NCI tumour cell line growth inhibition, 48 h
metric_name: GI50

These recorded examples may help you get a feel for the data.
>  <molecule>
Oc1c(-c2nnc(-c3ccccc3Cl)o2)sc2nnc(-c3ccccc3)c(-c3ccccc3)c12

>  <result>
3.78 µM

$$$$
>  <molecule>
OC(Cc1ccncc1)C(Cl)(Cl)Cl (stereo not drawn)

>  <result>
> 100 µM

$$$$

Entry O.O.[NH-]C1(C(=O)O)CCCC1.[NH-]C1(C(=O)O)CCCC1.[Ni+2] : reported GI50 = ?
> 100 µM

###

System: CCRF-CEM leukemia
Assay: NCI tumour cell line growth inhibition, 48 h
For each entry below, report its TGI value.

These recorded examples may help you get a feel for the data.
>  <compound>
CC[C@@]1(O)C(=O)OCc2c1cc1n(c2=O)Cc2c-1nc1ccccc1c2/C=N\NC(=O)C(N)CO (stereo not given in full)

>  <TGI>
> 19.7 µM

$$$$
>  <compound>
Cc1cc2c(cc1Cl)SC(NNC(=O)c1ccco1)=NS2(=O)=O

>  <TGI>
> 10 µM

$$$$
>  <compound>
O=c1cc(-c2ccccc2)c2ccccc2[nH]1

>  <TGI>
> 100 µM

$$$$
>  <compound>
COc1ccc(/C=C/C(=O)c2cc(OC)c(OC)c(OC)c2)cc1OCc1cn(Cc2ccc(F)cc2)nn1

>  <TGI>
8.66 µM

$$$$
>  <compound>
CC(C)(C)[Si](C)(C)OCC1OC(n2cnc3c(N)ncnc32)CC1O (stereo not given)

>  <TGI>
> 100 µM

$$$$
>  <compound>
O=C1CC(O)CC(=O)C1=C(O)CCCCCCCCCCc1ccccc1 (stereo not given)

>  <TGI>
> 100 µM

$$$$
>  <compound>
Cc1cc(-c2cccc3ccccc23)c(C#N)c(=S)n1C1OC(CO)C(O)C(O)C1O (stereo not given)

>  <TGI>
> 100 µM

$$$$
>  <compound>
CCCc1cc(=O)oc2c3c(c4c(c12)OC(C)(C)CC4)O[C@@H](C)[C@H](C)[C@H]3O

>  <TGI>
17.8 µM

$$$$
>  <compound>
CN1CCC2(CC1)ONC1=NCCN12

>  <TGI>
42.3 µM

$$$$

Now for a further compound.
# returns recorded TGI (system: CCRF-CEM leukemia) for CNC(=O)Nc1nc2ccc([N+](=O)[O-])cc2[nH]1
> 100 µM

###

For each entry below, report its TGI value.
Test system: PC-3 prostate
Assay: NCI tumour cell line growth inhibition, 48 h

>  <smiles_representation>
Oc1c(-c2nnc(-c3ccccc3Cl)o2)sc2nnc(-c3ccccc3)c(-c3ccccc3)c12

>  <TGI>
> 100 µM

$$$$
>  <smiles_representation>
COc1ccc(OC)c(-c2nc3n(c2/C=C2/C(=O)Nc4ccccc42)CCS3)c1

>  <TGI>
> 100 µM

$$$$
>  <smiles_representation>
CCOC(=O)/C(C=Nc1ccc(-c2nc3ccccc3[nH]2)cc1)=C(/C)O

>  <TGI>
> 50 µM

$$$$

Please state TGI for every compound in the list that follows.
1. Cc1ccc(C2=Nn3c(nc4sc(C)c(C)c4c3=O)SC2)cc1
2. CCCCON(OC(=O)c1ccc2ccccc2c1)C(=O)c1ccccc1

> 100 µM
> 100 µM

###

System: SF-268 CNS
Test: NCI tumour cell line growth inhibition, 48 h
metric_name: TGI

These recorded examples may help you get a feel for the data.
>  <compound>
CCN1C(=O)N(CC)C2C1NN=c1s/c(=C\c3cccc(F)c3)c(=O)n12 (configuration not stated)

>  <TGI>
> 100 µM

$$$$
>  <compound>
O=c1[nH]nnc2c1ncn2C1OC(CO)C(O)C1O (configuration not stated)

>  <TGI>
> 100 µM

$$$$
>  <compound>
COc1ccc2nc3cc(Cl)ccc3c(NCCNC(=O)Cn3c(=O)n(C)c(=O)c4c3nc3c(c(=O)n(C)c(=O)n3C)[n+]4[O-])c2c1

>  <TGI>
60.8 µM

$$$$
>  <compound>
C[C@]12CC[C@@H]3c4ccc(O)cc4CC[C@H]3[C@@H]1CC[C@@H]2OP(=O)(O)O

>  <TGI>
> 100 µM

$$$$
>  <compound>
CSc1nc(NC2OCC(O)C(O)C2O)c(N)c(=O)[nH]1 (configuration not stated)

>  <TGI>
> 100 µM

$$$$

Please state TGI for every compound in the list that follows.
1. Cc1ccc([N+](=O)[O-])cc1S(=O)(=O)Nc1ccc(C2=NOC(c3ccco3)C2)cc1 (configuration not stated)
2. Cc1c(C)c(C)c(-n2c(=O)n(C)c(=O)n2-n2c(=O)n(C)c(=O)n2-c2c(C)c(C)c(C)c(C)c2C)c(C)c1C
3. O=C1CC(O)CC(=O)C1=C(O)CCCCCCCCCCc1ccccc1 (configuration not stated)
4. COC(=O)c1ccc(-c2nc3cc(Cl)c(Cl)cc3nc2C#N)cc1

1: 97.1 µM; 2: > 100 µM; 3: > 100 µM; 4: > 100 µM
